PROTOCOL: thallium influx changes without GIRK channels – cell-based, HEK-293 rmGlu8, no GIRK, thallium flux, counter-screen for GIRK activator project, confirmation (AID 623868);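 note: extra codes mark interference with 3 for fluorescent and 4 for baseline rise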
TEST_CONDITIONS: thallium flux fluorescence, at 10 µM, actives lie on both sides, codes: 1 enhancer, -1 blocker, 0 none, thallium stimulus containing EC20 glutamate
Among all 2,100 compounds or so, about 760 (36%) were called active. The list is a sample of the results.
ATTRIBUTE_MEASURED: manual score

Check out these entries, answers already filled in.
In [3]: df
Out[3]:
                                   molecule  recorded_value
0      CCn1c(-c2ccc(-c3ccccc3)cc2)c[nH]c1=S    0 (inactive)
1  CC1Oc2ccccc2C=C1/C=N/NC(=O)c1ccccc1 (stereo not drawn)    0 (inactive)
2  O=[n+]1c2c(n([O-])c3cc(F)c(N4CCCC4)cc31)CCC2    3 (inactive)
3           COc1ccc(C)cc1NC(=O)NCCC1=CCCCC1    0 (inactive)

Please state manual score for every molecule in the list that follows.
1. CCN(C(=O)c1cc(Cl)ccc1OC)C1CCCCC1
2. Cc1cc(=O)n2[nH]c(C)c(-c3ccccc3)c2n1
3. FC(F)(F)c1cccc(NC(=S)NC2CCCC2)c1
4. CCOC(=O)c1ccc(NC(=S)NC2CCCC2)cc1

Response:
0 (inactive)
-0.5 (inactive)
0 (inactive)
0 (inactive)

---

PROTOCOL: thallium influx changes without GIRK channels – cell-based, HEK-293 rmGlu8, no GIRK, thallium flux, counter-screen for GIRK activator project, confirmation (AID 623868);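 note: extra codes mark interference with 3 for fluorescent and 4 for baseline rise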
TEST_CONDITIONS: thallium flux fluorescence, at 10 µM, actives lie on both sides, codes: 1 enhancer, -1 blocker, 0 none, thallium stimulus containing EC20 glutamate
About 760 (36%) of roughly 2,100 compounds were called active. The list is a sample of the results.
ATTRIBUTE_MEASURED: manual score
Answers are plain numbers.

Check out these entries, answers already filled in.
>>> df
                                   molecule  attribute_measured  recorded_value
0          CCCCN(CCCC)C(=S)NC(=O)c1ccccc1Cl        manual score               1
1  CCn1nc(C(=O)OCC(=O)c2c[nH]c3ccccc23)c2ccccc2c1=O        manual score              -1
2              O=C1c2ccccc2C(=O)N1Nc1ccccc1        manual score               0
3  Cc1ccc(-c2nc3ccccc3o2)cc1NC(=S)NC(=O)c1cc2ccccc2o1        manual score               0
4  CCOC(=O)C1=C(C)Nc2nnnn2C1c1ccccc1Cl (stereo not drawn)        manual score              -1

Please state manual score for every molecule in the list that follows.
1. CCCCn1nc(C(=O)N2CCc3ccccc32)c2ccccc2c1=O
2. O=C(Nc1ccc2oc(-c3ccncc3)nc2c1)c1c(F)c(F)c(F)c(F)c1F

Response:
1. 0
2. 0

---

PROTOCOL: thallium influx changes without GIRK channels – cell-based, HEK-293 rmGlu8, no GIRK, thallium flux, counter-screen for GIRK activator project, confirmation (AID 623868);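 note: extra codes mark interference with 3 for fluorescent and 4 for baseline rise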
TEST_CONDITIONS: thallium flux fluorescence, at 10 µM, actives lie on both sides, codes: 1 enhancer, -1 blocker, 0 none, thallium stimulus containing EC20 glutamate
Out of some 2,100 compounds screened, about 760 (36%) were called active. Only a sample is shown.
ATTRIBUTE_MEASURED: manual score
Numbers only.

Check out these entries, answers already filled in.
                                   molecule  recorded_value
0                c1cn(CC2(Cn3ccnc3)COC2)cn1               0
1  Cc1cc(C)c2oc(-c3ccc(C)c(NC(=S)NC(=O)c4cccs4)c3)nc2c1               1
2        CCCN(CCC)C(=S)NC(=O)c1ccc(Cl)cc1Cl               1

Please state manual score for every molecule in the list that follows.
1. CSc1nc(-c2ccccc2)[nH]c(=S)c1C(C)=O
2. COC(=O)c1ccc(CSc2ccc3nnc(-c4ccccc4)n3n2)o1
3. O=C1CC(c2ccncc2)c2cc3c(cc2N1)OCCO3 (stereo unspecified)

Response:
1
-1
0

The measurements presented in this section are drawn from PubChem BioAssay AID623868.
